# experimentalTarget: hPPARdelta (Homo sapiens, UniProt Q03181)
# Construct: expressed in transfected cells; host or cells: COS-7 (monkey kidney fibroblasts)
# Sequence (Q03181 211-439 limits assumed): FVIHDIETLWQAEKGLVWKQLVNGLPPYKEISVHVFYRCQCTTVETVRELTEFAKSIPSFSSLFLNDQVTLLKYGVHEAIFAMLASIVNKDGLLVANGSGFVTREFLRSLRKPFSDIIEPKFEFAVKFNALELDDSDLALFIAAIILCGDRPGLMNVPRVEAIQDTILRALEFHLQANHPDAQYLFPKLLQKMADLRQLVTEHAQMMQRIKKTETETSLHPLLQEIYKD
# protocolDescription: PPAR activation: Gal4-hPPARδ chimera luciferase transactivation in COS-7 cells, Method 1
# Type: cell-based
# settings: COS-7, 24 h, maximum percentage response relative to the reference GW501516, read-out: hPPARdelta % max
# Description: The activation of the PPARs was evaluated in vitro on a line of monkey kidney fibroblasts (COS-7) by measuring the transcriptional activity of chimeras constituted of the DNA binding domain of the Gal4 transcription factor of yeast and the ligand binding domain of the various PPARs. The compounds were tested at doses between 10^−5 and […] on the chimeras Gal4-PPARα, γ or δ, and the corresponding EC50 values were determined. […]
valueType: Emax (%)
Hi! Could you send only the number? It should be in %, unit omitted.

Completed entries (count: 6):
CC(C)(Oc1ccc(CCC(O)c2ccc(-c3ccc(C(F)(F)F)cc3)s2)c(Cl)c1Cl)C(=O)O (stereo not shown) :: 107
CC(C)(Oc1ccc(CCC(=O)c2ccc(-c3ccc(C(F)(F)F)cc3)s2)cc1F)C(=O)O :: 95
O=C(O)COc1ccc(CCC(=O)c2ccc(-c3ccc(C(F)(F)F)cc3)s2)cc1 :: 90
O=C(O)COc1ccc(CCC(=O)c2ccc(-c3ccc(C(F)(F)F)cc3)s2)c(Cl)c1Cl :: 88
CC(C)(Oc1ccc(CCC(OCc2ccccc2)c2cc(-c3ccc(C(F)(F)F)cc3)cs2)c(Cl)c1Cl)C(=O)O (stereo not shown) :: 101
CCC(Oc1ccc(CCC(=O)c2ccc(-c3ccc(C(F)(F)F)cc3)s2)c(Cl)c1Cl)C(=O)O (stereo not shown) :: 84

Attention now shifts to the item below.
Entry O=C(CCc1ccc(OC(C(=O)O)c2ccccc2)c(Cl)c1Cl)c1ccc(-c2ccc(C(F)(F)F)cc2)s1 (stereo not shown) under hPPARdelta (Homo sapiens, UniProt Q03181) had Emax of 0

Values were extracted from patent US8088819B2.
